Data credit: the EternaBench riboswitch data

Tested on: MS2 coat protein
Assay: apparent Kd, MS2 coat protein; higher = weaker binding; RNA-MaP array; tryptophan 2.4 mM where present
Details: ligand present: tryptophan; designed as: OFF switch for tryptophan
measurement-kind: apparent Kd (nM)
Numbers only, in nM.

Worked examples follow.
(Q) For the sequence UAUAUAUAUCACGAACUGUGGUGUAUGUCUCGAGGACCGGUACGGCCGCCACUCGCGCGGCCUCACAUGAGGAUCACCCAUGUCC , give its measured apparent Kd value.
(A) 113

(Q) For the sequence CUGCCUGCCUCACAUGAGGAUCACCCAUGUCGAGGACCGGUACGGCCGCCACUCGUCGUCGGUAAUACAGGCAUUGAAUAAUAUA , give its measured apparent Kd value.
(A) 37.5

(Q) For the sequence ACAUGAGGAUCACCCAUGUUAAACAGGGUGCGAGGACCGGUACGGCCGCCACUCGGACAUUAUUACGAGUGAAUGGUAACGAUGU , give its measured apparent Kd value.
(A) 20

Now look at this one.
(Q) For the sequence CUAUAAGUACCGGUCCUCAGAUCCUCAUGACGAGGACCGGUACGGCCGCCACUCGAAACAUGAGGAUCACCCAUGUAAUAAUACC , give its measured apparent Kd value.
(A) 19.9
